- Study system: T1, EGFR on 293T-EGFR cells (293T cells negative for BCMA expression) (UniProt P00533 25-1210, limits assumed)
- T1 construct: whole, on cells; negative control cells; that they carry EGFR is read from the label only
- Assay remarks: flow cytometry
Observable: binding result

INSERT INTO assay_data (binder, observable, recorded_measurement) VALUES
  ('NBL507-A1L1-P1R2-1B8-(44)-PME207-SEQF_D06 (VHH, purified VHH) VHH: QVQLVESGGGLVQPEGSLRLSCAASGSIFSIYAMGWYRQAPGKQRGLVAAITSGGDTFYADSVKGRFTISRDNARNTVYLQMNNLKSEDTAVYDCNGAPWGDHAPLVASWGQGTQVTVSS', 'binding result', 'no binding'),
  ('NBL507-A1L1-P1R2-1B6-(31)-PME207-SEQF_G04 (VHH, purified VHH) VHH: QVQLVESGGGLVQPGGSLRLSCAASGFTFSPSAMSWARQAPGKGLEWVSGIYSDGSTYYRDSVKGRFTISRDNARNMVYLQMNSLKPEDTAVYYCALGAMREGVYSDLLGQGTQVTVSS', 'binding result', 'no binding');
